- measured-on: F protein of human metapneumovirus strain JPS05-21 (type B2), on infectious virus (human metapneumovirus, strain JPS05-21 …)
- run-description: cell-based or functional assay
endpoint-label: IC50, neutralizing activity (hMPV infection of LLC-MK2 cells) (µg/mL)
Give bare numbers, in µg/mL.

Here's what some known entries look like.
EV046120 (antibody, human IgG1, lambda, V domains shown) VH: EVQLVESGGGLVKPGGSLRLSCAASGFTFSSYSMNWVRQAPGKGLEWVSSISSSSSYIYYADSLKGRFTVSRDNAKKSLYLQMNSLRAEDTAVYYCARVDYGTNSEVGRFDPWGQGTLVTVSS VL: QSVLTQPPSVSGTPGQRVTISCTGSSSNIGAGYAVHWYQQLPGTAPKLLIYDSINRPSGVPDRFSGSKSGTSASLAITGLQTEDEADYYCHSYDRSLSGSVFGGGTKLTVLG: 0.24
EV046116 (antibody, human IgG1, kappa, V domains shown) VH: QVQLQESGPGLVKPSETLSLTCTVSGGSISRDYWSFIRQPAGKGLEWIGRIYHNGDTNYNPSLKSRVTMSQDTSKNQFFLRLRHVTAADTAVYYCAREGSAGTFGQADWGQGTLVIVYS VL: EIVMTQSPATLSVSPGERATLSCRASQSISNNLAWYQQKPGQAPRLLIYGASTRATGIPARFSGGGSGTEFTLTISSLQSEDFAVYYCQQYENWLLYTFGQGTKLEIKR: 0.25
EV046142 (antibody, human IgG1, lambda, V domains shown) VH: QVQLVQSGAEVKKPGSSVRVSCKASGGTFSTYGINWVRQARGQGLEWMGTVIPTFEKTYYAQGFQGRVTIAADGSKNTVYMELRRLTSEDSAIYFCTRFFTPYCSGGSCYLDLWGPGTLVTVSS VL: QSVLTQPPSVSGAPGQSVTISCAGSSSNIGAGYDVHWYQHLPGTAPRLLIYSNTNRPSGVPDRFSGSKSGASASLAITGLQAEDEADYYCQSYDSGVVFGGGTKLTVLR: 0.22
EV046141 (antibody, human IgG1, lambda, V domains shown) VH: QVQLVQSGAEVKKPGASVKVSCKASGYTFADYYIHWLRQAPGQGLEWLGRINPSNSRTTYPQKFQGRVTVTRDTSTSTVYMELSSLRSADTAVYYCARDGLRMGYYYMDVWGKGTTVTVSS VL: QSVLTQPPSVSGAPGQRVTISCTGSSSNIGAGYDVHWYQQIPGTAPKLLIFGNYNRPSGVPDRFSASKSGTSASLAITGLQAEDEAHYYCQSYDTTLDGAVFGGGTKLTVLG: 0.44
EV046113 (antibody, human IgG1, kappa, V domains shown) VH: QVQLVESGGGLVRPGGSLRLSCAASGFTFSDYFMTWIRQAPGKGLEWVSYINSIGSVIFYADSVEGRFTVSRDNTMKSLFLQMNSLTAEDTAVYYCARSCRISYGASGGFSCGMDVWGQGTPVTVSS VL: DIQMTQSPSSLSASVGDRVTITCQASQSIRENINWYQQKTGKAPKLLIYDASILETGVPSRFSGSGSGTHFTFTISSLQPEDMATYYCQQYHHLITFGQGTRLDIKR: 0.39

Request: Indicate the recorded IC50, neutralizing activity (hMPV infection of LLC-MK2 cells) value for this binder: EV046135 (antibody, human IgG1, lambda, V domains shown) VH: QEQLVESGGDLVKPGGSLRITCAASGFTLSGYALVWVRQAPGRGLEWIADITASSTYINYAASVKGRFTISRDNAQSSLFLQMSSLRADDTGVYFCARLPHLPGFFDLWGRGTLVSVSS VL: QSVLTQPPSVSGAPGQRVTISCTGNSSNIGAGYDVNWYQHLPGTAPKLLISVNTNRPSGVPDRFSGSMSGTSASLAITGLQAEDEADYYCQSYDRRLSGYVFGTGTKVTVLG
Response: 0.22
